B1: glmS ribozyme (parent)
chain: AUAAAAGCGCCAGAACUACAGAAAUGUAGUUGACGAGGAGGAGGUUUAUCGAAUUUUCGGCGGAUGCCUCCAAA

- Variants of: B1
- Method: self-cleavage kobs at 2500 uM GlcN6P; higher = faster cleavage; RNA array
- Particulars: with glucosamine-6-phosphate
This sample holds only a part of the variants without activity.
Quantity kind: self-cleavage kobs at 2500 uM GlcN6P

[ask] # self-cleavage kobs at 2500 uM GlcN6P lookup, item G51U A52G
[reply] < 1e-05 s⁻¹

[ask] Field entry: G29A U30G
[reply] 0.0021 s⁻¹

[ask] Try this variant too: G32C G35A A36U U47G U56G
[reply] < 1e-05 s⁻¹

[ask] Here is the next variant: U54A U56A
[reply] 0.00712 s⁻¹

[ask] Entry G37U A42C U55G please
[reply] < 1e-05 s⁻¹

[ask] Another variant to check: C11G U46G G62A
[reply] < 1e-05 s⁻¹

[ask] What about this variant? G9A C11U C16U G63A U65G C68G
[reply] 3.97e-05 s⁻¹

[ask] Further, for G13C A15G C58A ?
[reply] 5.1e-05 s⁻¹

[ask] U46A A64G ?
[reply] 0.00242 s⁻¹

[ask] Here is the next variant: G7A G13A C34U
[reply] < 1e-05 s⁻¹

[ask] Do the same for U57G G59U please
[reply] < 1e-05 s⁻¹

[ask] Ok, now A12C A14C
[reply] 0.000201 s⁻¹

[ask] For G9C A39G G40U then?
[reply] < 1e-05 s⁻¹

[ask] // repeat for A6U G9C A12C U55A and report
[reply] < 1e-05 s⁻¹

[ask] Then what about the variant A39U A48G ?
[reply] 6.61e-05 s⁻¹

[ask] G35A C50G ?
[reply] 0.000615 s⁻¹

[ask] Another variant to check: A33U A48U G62U
[reply] < 1e-05 s⁻¹

[ask] G32C A48U C68U ?
[reply] < 1e-05 s⁻¹

[ask] Would you mind doing A12C A53U as well?
[reply] 0.0103 s⁻¹

[ask] Lookup G32C A53G
[reply] 6.68e-05 s⁻¹

[ask] Could you do the same for G9A G44U A52G U65G , please?
[reply] < 1e-05 s⁻¹

[ask] Also U47G A53G U57C C68U ?
[reply] 3.84e-05 s⁻¹

[ask] Same question for G9U G32U G38U A42U please.
[reply] < 1e-05 s⁻¹

[ask] Proceed to C11A G51C G63U
[reply] < 1e-05 s⁻¹

[ask] Thanks! And A12C U30C C71U ?
[reply] 0.000922 s⁻¹

[ask] Item: G35C U56G C58A U69A
[reply] < 1e-05 s⁻¹

[ask] Next: G51U G63C C67G
[reply] < 1e-05 s⁻¹

[ask] Then A6G C10G U46G ?
[reply] < 1e-05 s⁻¹

[ask] Field entry: U55G A64C
[reply] 9.39e-05 s⁻¹

[ask] Same question, U31G G66C this time
[reply] 7.89e-05 s⁻¹

[ask] Moving on to C61G G63C
[reply] < 1e-05 s⁻¹

[ask] What about this variant? A39U G40A A64G
[reply] 0.00738 s⁻¹

[ask] Record: C11G G40A U45G
[reply] < 1e-05 s⁻¹

[ask] Entry to check: A33U G63C
[reply] < 1e-05 s⁻¹

[ask] Another variant to check: G29C A36G G41U
[reply] < 1e-05 s⁻¹

[ask] Next entry: A6G C8G C11G G13U C50G C61A C71U
[reply] 0.000121 s⁻¹

[ask] Also, A14G G66A please.
[reply] 0.0046 s⁻¹

[ask] Next variant up: U31C G32A U55A
[reply] 0.000644 s⁻¹

[ask] And for G66A C67A ?
[reply] 0.00373 s⁻¹

[ask] Please answer likewise for G51A G62C
[reply] < 1e-05 s⁻¹

[ask] // next record C10A A12C G43A C67U C70G
[reply] < 1e-05 s⁻¹

[ask] Entry U30C G44A G66U please
[reply] < 1e-05 s⁻¹

[ask] Please answer likewise for A39C U56A
[reply] 0.00133 s⁻¹

[ask] Entry G32C U47A please
[reply] 2.87e-05 s⁻¹

[ask] Then what about the variant C8U G44U ?
[reply] < 1e-05 s⁻¹

[ask] Try this variant too: C16U A48G A53G
[reply] 9.32e-05 s⁻¹

[ask] Can you handle U47A G66A next?
[reply] 0.00842 s⁻¹

[ask] What would you report for U30G U57A ?
[reply] 4.22e-05 s⁻¹

[ask] Try this variant too: C50G C61U G66U
[reply] 0.00022 s⁻¹

[ask] Moving on to C8U G9C U31G A33C
[reply] < 1e-05 s⁻¹

[ask] C34A C58U , same question.
[reply] < 1e-05 s⁻¹

[ask] Then G41C G43A G44C C68U C71U ?
[reply] < 1e-05 s⁻¹

[ask] Same lookup for C11U G40U A42U G44A , please.
[reply] < 1e-05 s⁻¹

[ask] Param item: A12U A36C G40U U46A C61G
[reply] < 1e-05 s⁻¹

[ask] For C34A G51A then?
[reply] < 1e-05 s⁻¹

[ask] Now the variant C16A A52U C70G
[reply] 0.0002 s⁻¹

[ask] Moving on to the next variant: A33C A42U
[reply] < 1e-05 s⁻¹

[ask] Next: A14U G43C A53U G59C
[reply] < 1e-05 s⁻¹

[ask] Continue with C10G A12U G13C G32A
[reply] < 1e-05 s⁻¹

[ask] Next variant: A12G G32U A36U U49A C50G
[reply] < 1e-05 s⁻¹

[ask] What do we get for G7U C8A A33U G43A U55A ?
[reply] < 1e-05 s⁻¹

[ask] What about G29U U31A ?
[reply] 0.0019 s⁻¹

[ask] Similarly, C34G G60U ?
[reply] < 1e-05 s⁻¹

[ask] Repeat for the following variant: G35U A39U U45G U46C
[reply] < 1e-05 s⁻¹

[ask] Moving on to U30C C34A A36G A52U
[reply] < 1e-05 s⁻¹

[ask] Thanks! And U31C G38C A39C ?
[reply] < 1e-05 s⁻¹

[ask] Also need G43U G63U C68G , thanks.
[reply] < 1e-05 s⁻¹

[ask] Another variant: A6C C16A U31C
[reply] < 1e-05 s⁻¹

[ask] Now this one: G44U A48U C67U
[reply] 0.000418 s⁻¹

[ask] Cool, now C8A U46A
[reply] < 1e-05 s⁻¹

[ask] Then what about the variant A53U C67A C70A ?
[reply] 5.59e-05 s⁻¹

[ask] Consider next the variant C11G U31G G44A U65C in the same way.
[reply] < 1e-05 s⁻¹

[ask] Field entry: A15U G44C A64G
[reply] < 1e-05 s⁻¹

[ask] Record: C11U U31C C50A
[reply] < 1e-05 s⁻¹

[ask] Okay, and C16G G35U ?
[reply] < 1e-05 s⁻¹

[ask] Also need G44A C71A , thanks.
[reply] < 1e-05 s⁻¹

[ask] Do the same for G44C A53G please
[reply] 0.000105 s⁻¹

[ask] Then this variant: A14G C58G C71A
[reply] 9.06e-05 s⁻¹
